assay: PK of psilocin after a single intravenous administration in rats; settings: male, Sprague-Dawley, rat, plasma, iv, 1 mg/kg, AUCINF_obs, IV 1 mg/kg nominal dose, Mean of animals

compound: CN(C)CCc1c[nH]c2cccc(O)c12
measurement-unit: ng·h/mL
AUC(0-inf): 1580

###

assay: PK of psilocin after a single intravenous administration in rats; conditions: male, Sprague-Dawley, rat, plasma, iv, 1 mg/kg, Cmax, IV 1 mg/kg nominal dose, Mean of animals

compound: CN(C)CCc1c[nH]c2cccc(O)c12
measurement-unit: ng/mL
Cmax: 1300

###

experiment: PK of psilocin after a single intravenous administration in rats; settings: male, Sprague-Dawley, rat, plasma, iv, 1 mg/kg, T½, IV 1 mg/kg nominal dose, individual animal

compound: CN(C)CCc1c[nH]c2cccc(O)c12
measurement-unit: min
half-life: 24.8

###

test: PK of psilocin after a single intravenous administration in rats; conditions: male, Sprague-Dawley, rat, plasma, iv, 1 mg/kg, T½, IV 1 mg/kg nominal dose, Mean of animals
measure: half-life (min)

compound: CN(C)CCc1c[nH]c2cccc(O)c12 [Psilocin, psilocin]
measure: half-life
result: 28.7

Data credit: patent US20250011344A1
